# systemTested: Integrin alpha-M/beta-2 (Homo sapiens, UniProt P05107+P11215)
# Sequence (P05107 23-769 limits assumed, other chains not shown): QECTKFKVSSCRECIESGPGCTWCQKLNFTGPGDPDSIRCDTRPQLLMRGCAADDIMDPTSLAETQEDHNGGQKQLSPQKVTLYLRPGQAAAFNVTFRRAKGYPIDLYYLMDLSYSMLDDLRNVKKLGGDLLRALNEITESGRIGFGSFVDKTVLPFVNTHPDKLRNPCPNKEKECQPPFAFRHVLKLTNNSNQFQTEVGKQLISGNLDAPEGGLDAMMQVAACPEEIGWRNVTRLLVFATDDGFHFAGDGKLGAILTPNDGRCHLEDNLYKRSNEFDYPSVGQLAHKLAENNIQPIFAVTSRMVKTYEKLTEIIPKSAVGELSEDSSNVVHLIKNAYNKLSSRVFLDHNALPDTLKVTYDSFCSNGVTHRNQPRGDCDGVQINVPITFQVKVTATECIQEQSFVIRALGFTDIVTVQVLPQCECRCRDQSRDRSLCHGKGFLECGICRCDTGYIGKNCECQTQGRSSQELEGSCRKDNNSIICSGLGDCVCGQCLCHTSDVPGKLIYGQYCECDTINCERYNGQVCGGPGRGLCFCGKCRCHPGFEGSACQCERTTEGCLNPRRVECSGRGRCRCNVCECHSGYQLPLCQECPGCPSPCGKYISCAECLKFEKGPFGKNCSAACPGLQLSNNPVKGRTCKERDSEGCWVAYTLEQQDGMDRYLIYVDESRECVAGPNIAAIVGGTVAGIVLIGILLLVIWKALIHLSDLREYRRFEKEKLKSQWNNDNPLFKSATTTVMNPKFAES
# testMethodNotes: Inhibition of Mac-1 integrin (alphaM-beta2)
# Type: protein-complex assay
endpoint: IC50

Query: Fill in: IC50 of N=C(N)c1ccc(C2=NOC(CC(=O)NCCC(=O)O)C2)cc1 (stereo unspecified) is ___
Response: > 100 µM

---

# systemTested: Integrin alpha-M/beta-2 (Homo sapiens, UniProt P05107+P11215)
# testMethodNotes: Inhibition of Mac-1 interaction with ICAM
# Format: protein-complex assay
endpoint: IC50 (µM)
Give a bare numeral; the unit µM is implied.

Query: Fill in: IC50 of N=C(N)c1ccc(C2=NOC(CC(=O)NCCC(=O)O)C2)cc1 (stereo unspecified) is ___
Response: 100
